Test system: abdominal aorta ring specimen
Assay: Evaluation of blood vessel relaxing function (phenylephrine-contracted abdominal aorta ring)
Conditions: relaxation of rat abdominal aorta contracted with 1 μmol/L phenylephrine; without vs with 10 μmol/L ODQ
Threshold-based label: EC50 Ratio (ODQ−/ODQ+) under 5 gives yes, EC50 Ratio (ODQ−/ODQ+) not under 5 gives no.

Does O=C(O)CCCCN(CCc1ccccc1OCc1ccc(C2CC2)cc1)C1CCCc2cc(C(=O)O)ccc21 (stereo not shown) have EC50 Ratio (ODQ−/ODQ+) strictly under 5? yes

Same again, this time with O=C(O)CCCCN(CCc1ccccc1OCc1ccc(CCc2ccccc2)cc1)Cc1ccc(C(=O)O)cc1 [Cinaciguat, reference compound] no

Same again, this time with O=C(O)CCCCN(CCc1ccccc1OCc1ccc(SCc2ccccc2)cc1)C1CCCc2cc(C(=O)O)ccc21 (stereo not shown) no

Same again, this time with CC(C)c1ccc(COc2ccccc2CCN(CCCCC(=O)O)C2CCCc3cc(C(=O)O)ccc32)cc1 (stereo not shown) no

Same again, this time with C[C@@H](Oc1ccccc1CCN(CCCCC(=O)O)C1CCCc2cc(C(=O)O)ccc21)c1ccc(C(C)(C)C)cc1 (stereo partly shown) yes

Same again, this time with O=C(O)CCCCN(CCc1ccccc1OCc1ccc2c(c1)CCC2)C1CCCc2cc(C(=O)O)ccc21 (stereo not shown) no

---

Field: EC50 Ratio (ODQ−/ODQ+). Provide a value for each of the compounds that follow.
Biological target: human sGC α subunit and β subunit (Homo sapiens)
Construct: expressed in transfected cells
Sequence (Q02153 1-619): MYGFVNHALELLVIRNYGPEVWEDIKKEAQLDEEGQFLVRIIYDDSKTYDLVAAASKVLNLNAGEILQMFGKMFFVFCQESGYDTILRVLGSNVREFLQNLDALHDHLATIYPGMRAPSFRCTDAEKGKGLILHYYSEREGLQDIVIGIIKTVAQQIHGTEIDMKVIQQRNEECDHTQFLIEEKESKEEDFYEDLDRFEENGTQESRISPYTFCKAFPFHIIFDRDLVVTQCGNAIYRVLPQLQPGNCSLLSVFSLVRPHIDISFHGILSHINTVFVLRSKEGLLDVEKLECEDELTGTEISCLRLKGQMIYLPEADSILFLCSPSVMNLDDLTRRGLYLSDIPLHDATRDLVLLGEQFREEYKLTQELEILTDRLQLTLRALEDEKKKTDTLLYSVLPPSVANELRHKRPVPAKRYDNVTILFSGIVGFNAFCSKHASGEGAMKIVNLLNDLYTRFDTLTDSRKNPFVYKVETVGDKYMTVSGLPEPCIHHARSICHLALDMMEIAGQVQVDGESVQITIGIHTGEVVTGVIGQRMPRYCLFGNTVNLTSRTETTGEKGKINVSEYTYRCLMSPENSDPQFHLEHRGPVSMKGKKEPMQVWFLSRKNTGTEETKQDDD
Sequence (Q02108 1-690 partner): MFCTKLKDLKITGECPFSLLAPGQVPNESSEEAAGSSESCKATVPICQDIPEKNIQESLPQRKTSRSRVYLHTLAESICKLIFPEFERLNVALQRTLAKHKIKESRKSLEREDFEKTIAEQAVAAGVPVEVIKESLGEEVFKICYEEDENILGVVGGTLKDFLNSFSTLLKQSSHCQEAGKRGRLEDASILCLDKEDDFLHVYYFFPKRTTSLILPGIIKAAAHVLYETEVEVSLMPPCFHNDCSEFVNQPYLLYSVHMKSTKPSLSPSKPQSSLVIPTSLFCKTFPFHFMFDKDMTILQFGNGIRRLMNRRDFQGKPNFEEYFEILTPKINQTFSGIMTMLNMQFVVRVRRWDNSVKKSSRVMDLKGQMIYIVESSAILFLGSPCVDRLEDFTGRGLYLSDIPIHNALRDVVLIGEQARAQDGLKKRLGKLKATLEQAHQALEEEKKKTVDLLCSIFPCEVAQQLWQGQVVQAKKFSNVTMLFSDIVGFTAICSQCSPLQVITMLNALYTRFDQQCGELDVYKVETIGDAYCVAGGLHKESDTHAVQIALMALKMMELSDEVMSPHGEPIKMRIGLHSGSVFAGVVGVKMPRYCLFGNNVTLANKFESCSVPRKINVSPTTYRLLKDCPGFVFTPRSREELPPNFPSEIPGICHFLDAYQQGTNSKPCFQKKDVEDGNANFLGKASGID
Assay: Heme-independent property of sGC activating function (EC50 ratio, CHO-K1 cells expressing human sGC and mouse CNGA2)
Format: cell-based
Settings: EC50 in the absence of ODQ divided by EC50 in the presence of ODQ, sGC activation
Response field accepts a number only; no unit should be typed.

Which value of EC50 Ratio (ODQ−/ODQ+) has been reported for O=C(O)CCCCN(CCc1ccccc1OCc1ccc(SCc2ccccc2)cc1)C1CCCc2cc(C(=O)O)ccc21 (stereo not drawn) in the records? 1.40

Same again, this time with O=C(O)CCCCN(CCc1ccccc1OCc1ccc(CCc2ccccc2)cc1)C1CCc2cc(C(=O)O)ccc21 (stereo not drawn) 2.86

Same again, this time with O=C(O)CCCCN(CCc1ccccc1OCc1ccc(OCc2ccccc2)cc1)C1CCCc2cc(C(=O)O)ccc21 (stereo not drawn) 1.73

Same again, this time with O=C(O)CCCCN(CCc1ccccc1OC[C@H]1CC[C@@H](CCc2ccccc2)CC1)C1CCCc2cc(C(=O)O)ccc21 (stereo partly drawn) 1.84

Same again, this time with O=C(O)CCCCN(CCc1ccccc1OCc1ccc(CCc2ccccc2)cc1)C1CCCc2cc(C(=O)O)ccc21 (stereo not drawn) 2.67

Same again, this time with O=C(O)CCCCN(CCc1ccccc1OCc1ccc(CCc2ccccc2)cc1)Cc1ccc(C(=O)O)cc1 [Cinaciguat, reference compound] 3.08
